Entries with reported log10 Ki on UniProt Q15761
Sequence (Q15761 whole entry): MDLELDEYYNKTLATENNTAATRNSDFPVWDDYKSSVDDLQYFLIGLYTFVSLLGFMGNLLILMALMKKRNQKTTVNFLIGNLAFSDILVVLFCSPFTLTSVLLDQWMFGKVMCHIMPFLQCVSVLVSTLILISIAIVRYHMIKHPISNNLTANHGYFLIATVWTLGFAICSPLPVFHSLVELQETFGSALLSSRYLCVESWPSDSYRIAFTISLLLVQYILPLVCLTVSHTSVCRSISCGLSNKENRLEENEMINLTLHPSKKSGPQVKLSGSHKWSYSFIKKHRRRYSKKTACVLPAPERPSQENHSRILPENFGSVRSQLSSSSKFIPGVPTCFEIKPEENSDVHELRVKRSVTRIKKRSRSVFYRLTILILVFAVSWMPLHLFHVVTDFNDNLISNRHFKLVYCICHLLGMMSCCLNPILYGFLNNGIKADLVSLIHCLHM
# values: log10(Ki), units nM

For each entry beneath this line, provide reported log10 Ki.
1. O=C(NC[C@H]1CC[C@H](CNS(=O)(=O)c2ccccc2[N+](=O)[O-])CC1)Nc1cccc2ccccc12
2. O=C(NCCCCNS(=O)(=O)c1ccccc1[N+](=O)[O-])Nc1cccc2ccccc12
3. O=C(NCCCCCCNS(=O)(=O)c1cccc2ccccc12)Nc1cccc2ccccc12
4. O=S(=O)(NC[C@H]1CC[C@H](CNCc2ccc3c(c2)OCCO3)CC1)c1cccc2ccccc12
5. O=C(NCCCCCCNS(=O)(=O)c1ccccc1[N+](=O)[O-])c1ccc2ccccc2c1

Result:
[2.01, 2.86, 2.36, 1.08, 2.61]
